Tested on: Pseudomonas aeruginosa UC-12120
Assay: minimum inhibitory concentration (MIC) testing according to CLSI guidelines, Pseudomonas aeruginosa
Type: cell-based
Details: Pseudomonas aeruginosa, UC12120; UC-12120, wild-type, labeled as 1091-05; overnight incubation; lower of duplicate values; read-out: AB-MBT: Pseudomonas aeruginosa 1091-05: MIC (MstRcn)
Experimental: In order to assess the compounds biological activity, the in vitro anti-bacterial activity of selected compounds described in the Examples 1-69 was evaluated by minimum inhibitory concentration (MIC) testing according to Clinical and Laboratory Standards Institute (CLSI, formerly NCCLS) guidelines. See: Clinical and Laboratory Standards Institute. […] The MIC values described in Table 1 below were derived from assays wherein each test compound was evaluated in duplicate. […]
VALUE_TYPE: MIC (µg/mL)

CC(C)(O/N=C(\C(=O)N[C@@H]1C(=O)N(S(=O)(=O)O)[C@@H]1CNC(=O)c1csc(-c2cc(=O)c(O)c[nH]2)n1)c1csc(N)n1)C(=O)O [Example 20] | 1
CC(C)(O/N=C(\C(=O)N[C@@H]1C(=O)N(S(=O)(=O)O)[C@@H]1CNC(=O)c1cc(-c2cc(=O)c(O)c[nH]2)no1)c1csc(N)n1)C(=O)O [Example 14] | 1
CC(C)(O/N=C(\C(=O)N[C@@H]1C(=O)N(S(=O)(=O)O)[C@@H]1CNC(=O)c1cccc(NC(=O)c2cc(=O)c(O)cn2O)c1)c1csc(N)n1)C(=O)O [Example 67] | 4

1: C[C@H](NC(=O)c1cc(=O)c(O)cn1O)C(=O)NC[C@@H]1[C@H](NC(=O)/C(=N\OC(C)(C)C(=O)O)c2csc(N)n2)C(=O)N1S(=O)(=O)O [Example 54]
2: C[C@H](O/N=C(\C(=O)N[C@@H]1C(=O)N(S(=O)(=O)O)[C@@H]1CNC(=O)NCc1cc(=O)c(O)cn1O)c1nc(N)sc1Cl)C(=O)O [Example 34]
// query Among 1 and 2 , which shows a numerically higher MIC result? Indicate which entry you chose by stating its label.
// result 1
(1: 0.25 µg/mL, 2: 0.125 µg/mL)

---

system: Pseudomonas aeruginosa UC-12120; assay: minimum inhibitory concentration (MIC) testing according to CLSI guidelines, Pseudomonas aeruginosa; type: cell-based; details: Pseudomonas aeruginosa, UC12120; UC-12120, wild-type, labeled as 1091-05; overnight incubation; lower of duplicate values; read-out: AB-MBT: Pseudomonas aeruginosa 1091-05: MIC (MstRcn)
VALUE_TYPE: MIC (µg/mL)

Some solved entries appear below for comparison.
CC(C)(O/N=C(\C(=O)N[C@@H]1C(=O)N(S(=O)(=O)O)[C@@H]1COC(=O)c1cc(-c2cc(=O)c(O)cn2O)no1)c1csc(N)n1)C(=O)O [Example 13] | 0.25
CC(C)(O/N=C(\C(=O)N[C@@H]1C(=O)N(S(=O)(=O)O)[C@@H]1CNc1ccc(C(=O)NCc2cc(=O)c(O)cn2O)cn1)c1csc(N)n1)C(=O)O [Example 46] | 0.25

I: CC(C)(O/N=C(\C(=O)N[C@@H]1C(=O)N(S(=O)(=O)O)[C@@H]1CNS(=O)(=O)c1cccc(C(=O)NCc2cc(=O)c(O)cn2O)c1)c1csc(N)n1)C(=O)O [Example 68]
II: Nc1nc(/C(=N/OCC(=O)O)C(=O)N[C@@H]2C(=O)N(S(=O)(=O)O)[C@@H]2CNC(=O)NCc2cc(=O)c(O)cn2O)cs1 [Example 69]
III: CC(C)(O/N=C(\C(=O)N[C@@H]1C(=O)N(S(=O)(=O)O)[C@@H]1CNS(=O)(=O)c1ccc(C(=O)NCc2cc(=O)c(O)cn2O)cc1)c1csc(N)n1)C(=O)O [Example 48]
IV: CC(C)(O/N=C(\C(=O)N[C@@H]1C(=O)N(S(=O)(=O)O)[C@@H]1COC(=O)CNC(=O)c1cc(=O)c(O)cn1O)c1csc(N)n1)C(=O)O [Example 7]
// query Sort these compounds on MIC so the largest reading comes first. Answer format: list of labels, ordered as asked.
// result I, III, II, IV

---

tested on: Pseudomonas aeruginosa UC-12120; experiment: minimum inhibitory concentration (MIC) testing according to CLSI guidelines, Pseudomonas aeruginosa; format: cell-based; conditions: Pseudomonas aeruginosa, UC12120; UC-12120, wild-type, labeled as 1091-05; overnight incubation; lower of duplicate values; read-out: AB-MBT: Pseudomonas aeruginosa 1091-05: MIC (MstRcn)
VALUE_TYPE: MIC (µg/mL)

Some solved entries appear below for comparison.
C[C@H](NC(=O)NCc1cc(=O)c(O)cn1O)C(=O)NC[C@@H]1[C@H](NC(=O)/C(=N\OC(C)(C)C(=O)O)c2csc(N)n2)C(=O)N1S(=O)(=O)O | 0.25
CC(C)C[C@H](O/N=C(\C(=O)N[C@@H]1C(=O)N(S(=O)(=O)O)[C@@H]1CNC(=O)NCc1cc(=O)c(O)cn1O)c1csc(N)n1)C(=O)O | 1
Nc1nc(/C(=N/OC2(C(=O)O)CCC2)C(=O)N[C@@H]2C(=O)N(S(=O)(=O)O)[C@@H]2CNC(=O)CCC(=O)NCc2cc(=O)c(O)cn2O)cs1 | 0.125
CC(C)(O/N=C(\C(=O)N[C@@H]1C(=O)N(S(=O)(=O)O)[C@@H]1CNS(=O)(=O)NCc1cc(=O)c(O)cn1O)c1csc(N)n1)C(=O)O | 1
CC(C)(O/N=C(\C(=O)N[C@@H]1C(=O)N(S(=O)(=O)O)[C@@H]1CNC(=O)C1CN(C(=O)c2cc(=O)c(O)c[nH]2)C1)c1csc(N)n1)C(=O)O | 1

A: Nc1nc(/C(=N/O[C@@H](Cc2ccccc2)C(=O)O)C(=O)N[C@@H]2C(=O)N(S(=O)(=O)O)[C@@H]2CNC(=O)NCc2cc(=O)c(O)cn2O)cs1
B: CC(C)(O/N=C(\C(=O)N[C@@H]1C(=O)N(S(=O)(=O)O)[C@@H]1Cn1cc(-c2cc(=O)c(O)c[nH]2)nn1)c1csc(N)n1)C(=O)O
C: CC(C)(O/N=C(\C(=O)N[C@@H]1C(=O)N(S(=O)(=O)O)[C@@H]1CNC(=O)c1ccnc(-c2cc(=O)c(O)c[nH]2)n1)c1csc(N)n1)C(=O)O
D: Nc1nc(/C(=N/OC2(C(=O)O)CCC2)C(=O)N[C@@H]2C(=O)N(S(=O)(=O)O)[C@@H]2CNC(=O)c2ccc(CNC(=O)c3cc(O)c(O)cn3)cc2)cs1
// query Sort these compounds on MIC so the largest reading comes first. Answer format: list of labels, ordered as asked.
// result D, C, B, A

a: Nc1nc(/C(=N/OC2(C(=O)O)CCCCC2)C(=O)N[C@@H]2C(=O)N(S(=O)(=O)O)[C@@H]2CNC(=O)NCc2cc(=O)c(O)cn2O)cs1
b: CC(C)(O/N=C(\C(=O)N[C@@H]1C(=O)N(S(=O)(=O)O)[C@@H]1COC(=O)c1csc(-c2cc(=O)c(O)c[nH]2)n1)c1csc(N)n1)C(=O)O
// query Hey, between a and b which has a smaller measured MIC? Indicate which entry you chose by stating its label.
// result b
(b: 0.5 µg/mL, a: 1 µg/mL)

---

system: Pseudomonas aeruginosa UC-12120; test: minimum inhibitory concentration (MIC) testing according to CLSI guidelines, Pseudomonas aeruginosa; format: cell-based; conditions: Pseudomonas aeruginosa, UC12120; UC-12120, wild-type, labeled as 1091-05; overnight incubation; lower of duplicate values; read-out: AB-MBT: Pseudomonas aeruginosa 1091-05: MIC (MstRcn)
VALUE_TYPE: MIC (µg/mL)

Some solved entries appear below for comparison.
CC(C)(O/N=C(\C(=O)N[C@@H]1C(=O)N(S(=O)(=O)O)[C@@H]1CNC(=O)Cc1ccc(NC(=O)c2cc(=O)c(O)cn2O)cc1)c1csc(N)n1)C(=O)O [Example 45] | 0.5
Nc1nc(/C(=N/OC2(C(=O)O)CCOCC2)C(=O)N[C@@H]2C(=O)N(S(=O)(=O)O)[C@@H]2CNC(=O)NCc2cc(=O)c(O)cn2O)cs1 [Example 27] | 1
CC(C)(O/N=C(\C(=O)N[C@@H]1C(=O)N(S(=O)(=O)O)[C@@H]1CNC(=O)Nc1cc(=O)c(O)c[nH]1)c1csc(N)n1)C(=O)O [Example 57] | 2
Cn1cc(O)c(=O)cc1C(=O)NC[C@@H]1[C@H](NC(=O)/C(=N\OC(C)(C)C(=O)O)c2csc(N)n2)C(=O)N1S(=O)(=O)O [Example 35] | 4

1: CC(C)(O/N=C(\C(=O)N[C@@H]1C(=O)N(S(=O)(=O)O)[C@@H]1CNC(=O)c1cccc(C(=O)NCc2cc(=O)c(O)cn2O)c1)c1csc(N)n1)C(=O)O [Example 44]
2: CC(C)(O/N=C(\C(=O)N[C@@H]1C(=O)N(S(=O)(=O)O)[C@@H]1CNc1cc(C(=O)NCc2cc(=O)c(O)cn2O)ccn1)c1csc(N)n1)C(=O)O [Example 50]
3: Nc1nc(/C(=N/OC2(C(=O)O)CCCC2)C(=O)N[C@@H]2C(=O)N(S(=O)(=O)O)[C@@H]2CNC(=O)c2cc(=O)c(O)cn2O)cs1 [Example 66]
// query Sort these compounds on MIC so the largest reading comes first. Answer format: list of labels, ordered as asked.
// result 3, 1, 2
(3: 0.5 µg/mL, 1: 0.25 µg/mL, 2: 0.125 µg/mL)
